Some molecules, each annotated with its measured percentage variation in the latency time, day 7.
- Tested on: tolerance induced by morphine
- test: Antagonism to the development of tolerance to repeated administration of morphine HCl (tail flick)
- Assay type: in vivo, rats
- runConditions: day 7; 3 mg/kg i.p. + morphine HCl 3 mg/kg i.p. (row Morphine: alone)
Your answer should be a plain number; it is taken to be in %.

Example cases with answers are listed next.
1) O=C(N[C@@H](Cc1c[nH]c2ccccc12)C(=O)O)OC(c1ccccc1)c1ccccc1 ... 10.33
2) CN1CC[C@]23c4c5ccc(O)c4O[C@H]2[C@@H](O)C=C[C@H]3[C@H]1C5 [Morphine, morphine, reference compound] ... 1.95
3) CCCCCCc1ccc(C(=O)N[C@@H](Cc2c[nH]c3ccccc23)C(=O)O)cc1 ... 29.75

Let us move to another entry and its percentage variation in the latency time, day 7.
Problem: tolerance induced by morphine / percentage variation in the latency time, day 7 / O=C(N[C@@H](Cc1c[nH]c2ccccc12)C(=O)O)OCc1ccc(F)cc1 : value?
Solution: 16.1

----------
- Test system: analgesic activity of morphine
- test: Tail Flick Test: increase in the analgesic effect of morphine
- Assay type: in vivo, rats
- runConditions: rat, in vivo
recordedEndpoint: Potency ratio relative to morphine alone
Quick one: just the number, no unit, thanks!

1. N#Cc1ccc(C(=O)N[C@@H](Cc2c[nH]c3ccccc23)C(=O)O)cc1 ... 2.17
2. O=C(N[C@@H](Cc1c[nH]c2ccccc12)C(=O)O)c1ccc(Br)cc1 ... 1.75
3. O=C(N[C@@H](Cc1c[nH]c2ccccc12)C(=O)O)c1ccc(C(F)(F)F)cc1 ... 1.46
4. Cc1ccc(C(=O)N[C@@H](Cc2c[nH]c3ccccc23)C(=O)O)cc1C ... 1.96
5. O=C(N[C@@H](Cc1c[nH]c2ccccc12)C(=O)O)c1cccc(Cl)c1 ... 0.96

Problem: Look up Potency ratio relative to morphine alone for this molecule: N#Cc1cccc(C(=O)N[C@@H](Cc2c[nH]c3ccccc23)C(=O)O)c1
Solution: 1.44

Problem: Look up Potency ratio relative to morphine alone for this molecule: CCCCCc1ccc(C(=O)N[C@@H](Cc2c[nH]c3ccccc23)C(=O)O)cc1
Solution: 2.67

----------
Some compounds, each annotated with its measured Potency ratio relative to morphine alone.
- Tested on: analgesic activity of morphine
- test: Tail Flick Test: increase in the analgesic effect of morphine
- Assay type: in vivo, rats
- runConditions: rat, in vivo
Quick one: just the number, no unit, thanks!

1) O=C(N[C@@H](Cc1c[nH]c2ccccc12)C(=O)O)c1ccc(Cl)cc1 ... 1.65
2) CCc1ccc(COC(=O)N[C@@H](Cc2c[nH]c3ccccc23)C(=O)O)cc1 ... 1.80

Problem: Look up Potency ratio relative to morphine alone for this compound: CCCc1ccc(C(=O)N[C@@H](Cc2c[nH]c3ccccc23)C(=O)O)cc1
Solution: 1.05
